# Tested on: serum 62 (individual 62)
# Format: binding, human
Recorded Binding of serum 62 to linear peptides of Orf14 of SARS-CoV TOR2 values for a group of sequences are listed next.

[
  {
    "ORDERED RESIDUES": "LAPHHVVAVIQEIQL",
    "SYSTEM TESTED": "serum 62 (individual 62)",
    "RESULT": 0.4
  },
  {
    "ORDERED RESIDUES": "AVGEILLLEWLAEVV",
    "SYSTEM TESTED": "serum 62 (individual 62)",
    "RESULT": 0.6
  },
  {
    "ORDERED RESIDUES": "PCYNFLKEQHCQKAS",
    "SYSTEM TESTED": "serum 62 (individual 62)",
    "RESULT": 0.1
  },
  {
    "ORDERED RESIDUES": "LEWLAEVVKLPSRYC",
    "SYSTEM TESTED": "serum 62 (individual 62)",
    "RESULT": 0.4
  },
  {
    "ORDERED RESIDUES": "REAEAAVKPLLAPHH",
    "SYSTEM TESTED": "serum 62 (individual 62)",
    "RESULT": 0.3
  }
]

Okay, next one:
Given item LKEQHCQKASTQREA , the value recorded as its Binding of serum 62 to linear peptides of Orf14 of SARS-CoV TOR2 is 0.2

====

# Tested on: serum SARS-green
# Format: binding, human
ASSAY METRIC: Binding of serum SARS-green to linear peptides of Orf14 of SARS-CoV TOR2
Respond numerically, and do not add a unit to the figure.

[
  {
    "ORDERED RESIDUES": "IQLLAAVGEILLLEW",
    "QUANTITATIVE RESULT": 0.2
  }
]

Reported Binding of serum SARS-green to linear peptides of Orf14 of SARS-CoV TOR2 (serum SARS-green) for entry QREAEAAVKPLLAPH is 0.3

Field Binding of serum SARS-green to linear peptides of Orf14 of SARS-CoV TOR2 (system: serum SARS-green) for entry PLLAPHHVVAVIQEI = 0.2

Result for EQHCQKASTQREAEA , tested on serum SARS-green, Binding of serum SARS-green to linear peptides of Orf14 of SARS-CoV TOR2: 0.3

Record for TQREAEAAVKPLLAP under target or system serum SARS-green: Binding of serum SARS-green to linear peptides of Orf14 of SARS-CoV TOR2 reported as 0.3

====

Binding of serum SARS-green to linear peptides of Orf14 of SARS-CoV TOR2 for assorted sequences
# Test system: serum SARS-green
# Type: binding, human
Just the number, please, no unit after it.

[
  {
    "ORDERED RESIDUES": "FLKEQHCQKASTQRE",
    "QUANTITATIVE RESULT": 0.1
  }
]

The sequence LAAVGEILLLEWLAE showed Binding of serum SARS-green to linear peptides of Orf14 of SARS-CoV TOR2 equal to 0.5

So for CYNFLKEQHCQKAST , the logged Binding of serum SARS-green to linear peptides of Orf14 of SARS-CoV TOR2 turned out to be 0.4

The sequence listed as LLLEWLAEVVKLPSR shows Binding of serum SARS-green to linear peptides of Orf14 of SARS-CoV TOR2 equal to 0.3

Just so you know, measured Binding of serum SARS-green to linear peptides of Orf14 of SARS-CoV TOR2 for QKASTQREAEAAVKP came out at 0.1

Reported Binding of serum SARS-green to linear peptides of Orf14 of SARS-CoV TOR2 ( ILLLEWLAEVVKLPS ) = 0.1

====

# Tested on: serum 1a (individual 1, early serum)
# Assay type: binding, human
Binding of serum 1a to linear peptides of Orf14 of SARS-CoV TOR2 strictly under 0.5 means y; at 0.5 or over means n.

[
  {
    "ORDERED RESIDUES": "LPPCYNFLKEQHCQK",
    "SYSTEM TESTED": "serum 1a (individual 1, early serum)",
    "ANSWER LABEL": "y"
  }
]

Q: Quick check: does AAVKPLLAPHHVVAV have Binding of serum 1a to linear peptides of Orf14 of SARS-CoV TOR2 under 0.5?
A: n

Q: Please determine if LEWLAEVVKLPSRYC is below 0.5 in terms of Binding of serum 1a to linear peptides of Orf14 of SARS-CoV TOR2.
A: n

Q: Consider AVKPLLAPHHVVAVI . Does its Binding of serum 1a to linear peptides of Orf14 of SARS-CoV TOR2 lie strictly below 0.5?
A: n

====

# System: serum 1b (individual 1, late serum)
# Format: binding, human
ASSAY METRIC: Binding of serum 1b to linear peptides of Orf14 of SARS-CoV TOR2
In your answer, state the number alone without any accompanying words.

Worked examples, 8 sequences total:
[
  {
    "ORDERED RESIDUES": "LLAPHHVVAVIQEIQ",
    "QUANTITATIVE RESULT": 0.5
  },
  {
    "ORDERED RESIDUES": "AVGEILLLEWLAEVV",
    "QUANTITATIVE RESULT": 0.5
  },
  {
    "ORDERED RESIDUES": "YNFLKEQHCQKASTQ",
    "QUANTITATIVE RESULT": 0.4
  },
  {
    "ORDERED RESIDUES": "PPCYNFLKEQHCQKA",
    "QUANTITATIVE RESULT": 0.2
  },
  {
    "ORDERED RESIDUES": "QEIQLLAAVGEILLL",
    "QUANTITATIVE RESULT": 0.4
  },
  {
    "ORDERED RESIDUES": "STQREAEAAVKPLLA",
    "QUANTITATIVE RESULT": 0.3
  },
  {
    "ORDERED RESIDUES": "REAEAAVKPLLAPHH",
    "QUANTITATIVE RESULT": 0.3
  },
  {
    "ORDERED RESIDUES": "IQEIQLLAAVGEILL",
    "QUANTITATIVE RESULT": 0.4
  }
]

Proceed to the following item.
// PHHVVAVIQEIQLLA : Binding of serum 1b to linear peptides of Orf14 of SARS-CoV TOR2 value = 0.3

====

# Tested on: serum 1a (individual 1, early serum)
# Assay type: binding, human
ASSAY METRIC: Binding of serum 1a to linear peptides of Orf14 of SARS-CoV TOR2

Worked cases, answers included:
[
  {
    "ORDERED RESIDUES": "LAAVGEILLLEWLAE",
    "SYSTEM TESTED": "serum 1a (individual 1, early serum)",
    "RESULT": 0.6
  },
  {
    "ORDERED RESIDUES": "QREAEAAVKPLLAPH",
    "SYSTEM TESTED": "serum 1a (individual 1, early serum)",
    "RESULT": 0.4
  },
  {
    "ORDERED RESIDUES": "MLPPCYNFLKEQHCQ",
    "SYSTEM TESTED": "serum 1a (individual 1, early serum)",
    "RESULT": 0.4
  },
  {
    "ORDERED RESIDUES": "PCYNFLKEQHCQKAS",
    "SYSTEM TESTED": "serum 1a (individual 1, early serum)",
    "RESULT": 0.3
  },
  {
    "ORDERED RESIDUES": "AVGEILLLEWLAEVV",
    "SYSTEM TESTED": "serum 1a (individual 1, early serum)",
    "RESULT": 0.6
  },
  {
    "ORDERED RESIDUES": "LLAAVGEILLLEWLA",
    "SYSTEM TESTED": "serum 1a (individual 1, early serum)",
    "RESULT": 0.5
  },
  {
    "ORDERED RESIDUES": "QHCQKASTQREAEAA",
    "SYSTEM TESTED": "serum 1a (individual 1, early serum)",
    "RESULT": 0.4
  },
  {
    "ORDERED RESIDUES": "LLEWLAEVVKLPSRY",
    "SYSTEM TESTED": "serum 1a (individual 1, early serum)",
    "RESULT": 0.5
  }
]

// field: Binding of serum 1a to linear peptides of Orf14 of SARS-CoV TOR2; key: VIQEIQLLAAVGEIL ; value = 0.5

Note to self: Binding of serum 1a to linear peptides of Orf14 of SARS-CoV TOR2 recorded for GEILLLEWLAEVVKL was 0.5

Values compiled from patent US20060154243A1.
